Biological target: Salicylate synthase (Mycobacterium tuberculosis (strain CDC 1551 / Oshkosh)) (UniProt P9WFX0)
Sequence (P9WFX0 whole entry, looked up): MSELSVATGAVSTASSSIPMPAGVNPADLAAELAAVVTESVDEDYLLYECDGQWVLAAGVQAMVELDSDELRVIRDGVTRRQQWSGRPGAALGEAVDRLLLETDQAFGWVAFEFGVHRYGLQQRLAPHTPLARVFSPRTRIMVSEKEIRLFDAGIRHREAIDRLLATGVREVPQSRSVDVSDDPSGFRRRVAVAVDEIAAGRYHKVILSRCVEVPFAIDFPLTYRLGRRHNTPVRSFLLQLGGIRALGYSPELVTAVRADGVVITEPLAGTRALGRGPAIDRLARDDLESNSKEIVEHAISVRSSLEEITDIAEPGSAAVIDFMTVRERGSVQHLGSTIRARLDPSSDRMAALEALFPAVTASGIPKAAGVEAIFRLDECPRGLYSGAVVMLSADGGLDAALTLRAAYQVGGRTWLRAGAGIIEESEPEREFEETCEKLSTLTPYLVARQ
Assay: inhibitors of M. tuberculosis MbtI – biochemical, fluorescence intensity, primary screen (AID 493033)
Details: purified MbtI enzyme, fluorescence intensity read-out, hits give high values, concentration not given here
About 930 (0.93%) of roughly 100,000 compounds were called active. The entries come from a sample that favours actives as a whole.
result_type: inhibition (%)
One number for each entry, in %.

                                   molecule  measurement
0  O=c1ccc(-c2ccc(S(=O)(=O)Nc3ccccc3)o2)n[nH]1         1.95
1                 CCOc1cccc2sc(NC(C)=O)nc12         17.4
2            O=C(NCCC1=CCCCC1)Nc1ccc(Cl)cc1           -5
3  O=C(NCCCN1CCCC1)C1CCN(c2nc3ccccc3n3cccc23)CC1        -7.35
4            CNC(=O)O/N=C/c1nn(C(C)=O)cc1Br         2.45

Report inhibition for each item below.
1. Cc1ccc(C(=O)CN(C)C2CCCCC2)cc1
2. O=C(CCC(=O)N1CCCCc2ccccc21)NC1CCCC1
3. CCCc1cc2c(cc1N)OCO2
4. CCCn1c(SC(C(=O)NC(=O)NC)c2ccccc2)n[nH]c1=O (configuration not stated)
5. O=C(CSc1nccn1-c1ccc(F)cc1)Nc1ccccc1
6. COC(=O)c1cc(Cl)cc(Cl)c1O
7. CCc1ccc(N(C(C)=O)c2nc(CSc3nnc4n3CCCCC4)cs2)cc1

result:
1: 12.6; 2: -4.6; 3: 13.3; 4: -3.85; 5: 9.1; 6: -95.7; 7: -11.7

Source of measurements: PubChem BioAssay AID493033
